system: MPNST complex spheroid with HUVEC/MSC, growth, % test/control; assay: Anticancer human tumor MPNST cell line growth inhibition [Asc]; settings: second compound 0.3 µM; first compound 0.0316 µM; hits give low values;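 further: compounds left on spheroids for seven days before reading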
measured.metric: viability, T/C

compound	measured.metric	meas.value
Cn1ncnc1[C@H]1c2n[nH]c(=O)c3cc(F)cc(c23)N[C@@H]1c1ccc(F)cc1 + CCN1C(C(=O)NC23CCC(C(=O)O)(CC2)CC3)C(c2cccc(Cl)c2F)C2(C(=O)Nc3cc(Cl)ccc32)C12CCCCC2	viability, T/C	91.1%
O=C(c1cc(Cc2n[nH]c(=O)c3ccccc23)ccc1F)N1CCN(C(=O)C2CC2)CC1 + CCN1C(C(=O)NC23CCC(C(=O)O)(CC2)CC3)C(c2cccc(Cl)c2F)C2(C(=O)Nc3cc(Cl)ccc32)C12CCCCC2	viability, T/C	122%
C#Cc1c(F)ccc2cc(O)cc(-c3ncc4c(N5CC6CCC(C5)N6)nc(OCC56CCCN5CC(F)C6)nc4c3F)c12 (stereo not given) + CCN1C(C(=O)NC23CCC(C(=O)O)(CC2)CC3)C(c2cccc(Cl)c2F)C2(C(=O)Nc3cc(Cl)ccc32)C12CCCCC2	viability, T/C	84.6%

Q: Read off the recorded viability, T/C for CCN1CCN(Cc2ccc(Nc3ncc(F)c(-c4cc(F)c5nc(C)n(C(C)C)c5c4)n3)nc2)CC1 + CCN1C(C(=O)NC23CCC(C(=O)O)(CC2)CC3)C(c2cccc(Cl)c2F)C2(C(=O)Nc3cc(Cl)ccc32)C12CCCCC2
A: 87.1%

Q: Please indicate viability, T/C recorded for C=C(F)C(=O)N1CCN(c2nc(OCC3CCCN3C)nc3c2CCN(c2cccc4cccc(Cl)c24)C3)CC1CC#N (stereo not given) + CCN1C(C(=O)NC23CCC(C(=O)O)(CC2)CC3)C(c2cccc(Cl)c2F)C2(C(=O)Nc3cc(Cl)ccc32)C12CCCCC2
A: 92.4%

====

Test system: MPNST complex spheroid with HUVEC/MSC, growth, % test/control
Assay: Anticancer human tumor MPNST cell line growth inhibition [Asc];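 further: compounds left on spheroids for seven days before reading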
Conditions: second compound 0.0949 µM; first compound 3.16 µM; hits give low values
Excerpt: Multicellular complex tumor spheroid response to apoptosis pathway targeting inhibitors Alrizomadlin, Pelcitoclax, and Dasminapant in combination with a variety of drugs and investigational agents in selected tumor cell lines […] Compounds. […] If the clinical Cmax for an agent had not been determined, the highest concentration tested was 10 microM. […]
measured.metric: viability, T/C (%)
The answer is to be given in %; state only the numeric part.

Would you please look over these solved cases?
molecule	viability, T/C, %
O=C(c1cc(Cc2n[nH]c(=O)c3ccccc23)ccc1F)N1CCN(C(=O)C2CC2)CC1 + CCN1C(C(=O)NC23CCC(C(=O)O)(CC2)CC3)C(c2cccc(Cl)c2F)C2(C(=O)Nc3cc(Cl)ccc32)C12CCCCC2	97.9
C=C(F)C(=O)N1CCN(c2nc(OCC3CCCN3C)nc3c2CCN(c2cccc4cccc(Cl)c24)C3)CC1CC#N (centres undefined) + CCN1C(C(=O)NC23CCC(C(=O)O)(CC2)CC3)C(c2cccc(Cl)c2F)C2(C(=O)Nc3cc(Cl)ccc32)C12CCCCC2	67
C#Cc1c(F)ccc2cc(O)cc(-c3ncc4c(N5CC6CCC(C5)N6)nc(OCC56CCCN5CC(F)C6)nc4c3F)c12 (centres undefined) + CCN1C(C(=O)NC23CCC(C(=O)O)(CC2)CC3)C(c2cccc(Cl)c2F)C2(C(=O)Nc3cc(Cl)ccc32)C12CCCCC2	71.2

Could you now consider this next molecule?
Q: Give the measured viability, T/C for C=CC(=O)N1CCN(c2nc(=O)n(-c3c(C)ccnc3C(C)C)c3nc(-c4c(O)cccc4F)c(F)cc23)C(C)C1 (centres undefined) + CCN1C(C(=O)NC23CCC(C(=O)O)(CC2)CC3)C(c2cccc(Cl)c2F)C2(C(=O)Nc3cc(Cl)ccc32)C12CCCCC2
A: 98.8

====

tested on: MPNST complex spheroid with HUVEC/MSC, growth, % test/control; test: Anticancer human tumor MPNST cell line growth inhibition [Asc]; settings: second compound 0.3 µM; first compound 0.0316 µM; hits give low values;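 further: compounds left on spheroids for seven days before reading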
Response field label: string, one of Y (viability, T/C strictly below 70%) or N.

Q: Strictly below 70% in viability, T/C? O=C(c1ccc(F)c(F)c1Nc1ccc(I)cc1F)N1CC(O)([C@@H]2CCCCN2)C1 + CCN1C(C(=O)NC23CCC(C(=O)O)(CC2)CC3)C(c2cccc(Cl)c2F)C2(C(=O)Nc3cc(Cl)ccc32)C12CCCCC2
A: N

Q: Does this compound meet the criterion viability, T/C < 70%? C=CC(=O)N1CCN(c2nc(=O)n(-c3c(C)ccnc3C(C)C)c3nc(-c4c(O)cccc4F)c(F)cc23)C(C)C1 (stereo not given) + CCN1C(C(=O)NC23CCC(C(=O)O)(CC2)CC3)C(c2cccc(Cl)c2F)C2(C(=O)Nc3cc(Cl)ccc32)C12CCCCC2
A: N

Q: I wonder whether CNC(C)C(=O)NC1CN(S(=O)(=O)c2cccc(S(=O)(=O)N3CCC4CCC(C(=O)NC(c5ccccc5)c5ccccc5)N4C(=O)C(NC(=O)C(C)NC)C3)c2)CCC2CCC(C(=O)NC(c3ccccc3)c3ccccc3)N2C1=O (stereo not given) + CCN1C(C(=O)NC23CCC(C(=O)O)(CC2)CC3)C(c2cccc(Cl)c2F)C2(C(=O)Nc3cc(Cl)ccc32)C12CCCCC2 has viability, T/C below 70%. Can you tell?
A: N

Q: viability, T/C under 70%? Item: COc1c(OCCCN2CCOCC2)ccc2c3n(c(=NC(=O)c4cnc(N)nc4)nc12)CCN3 + CCN1C(C(=O)NC23CCC(C(=O)O)(CC2)CC3)C(c2cccc(Cl)c2F)C2(C(=O)Nc3cc(Cl)ccc32)C12CCCCC2
A: Y

====

Tested on: MPNST complex spheroid with HUVEC/MSC, growth, % test/control
Assay: Anticancer human tumor MPNST cell line growth inhibition [Asc];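 further: compounds left on spheroids for seven days before reading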
Settings: second compound 0.01 µM; first compound 0.0316 µM; hits give low values
From the text: Multicellular complex tumor spheroid response to apoptosis pathway targeting inhibitors Alrizomadlin, Pelcitoclax, and Dasminapant in combination with a variety of drugs and investigational agents in selected tumor cell lines […] Compounds. […] If the clinical Cmax for an agent had not been determined, the highest concentration tested was 10 microM. […]
Listed next: entries and their corresponding viability, T/C.

Q: Give the value of viability, T/C reported for the following: C#Cc1c(F)ccc2cc(O)cc(-c3ncc4c(N5CC6CCC(C5)N6)nc(OCC56CCCN5CC(F)C6)nc4c3F)c12 (configuration not stated) + CNC(C)C(=O)NC1CN(S(=O)(=O)c2cccc(S(=O)(=O)N3CCC4CCC(C(=O)NC(c5ccccc5)c5ccccc5)N4C(=O)C(NC(=O)C(C)NC)C3)c2)CCC2CCC(C(=O)NC(c3ccccc3)c3ccccc3)N2C1=O
A: 96%

Q: Fill in reported viability, T/C for this entry: O=C(c1ccc(F)c(F)c1Nc1ccc(I)cc1F)N1CC(O)([C@@H]2CCCCN2)C1 + CNC(C)C(=O)NC1CN(S(=O)(=O)c2cccc(S(=O)(=O)N3CCC4CCC(C(=O)NC(c5ccccc5)c5ccccc5)N4C(=O)C(NC(=O)C(C)NC)C3)c2)CCC2CCC(C(=O)NC(c3ccccc3)c3ccccc3)N2C1=O
A: 131%

====

system: MPNST complex spheroid with HUVEC/MSC, growth, % test/control; experiment: Anticancer human tumor MPNST cell line growth inhibition [Asc]; conditions: second compound 0.03 µM; first compound 1 µM; hits give low values;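 further: compounds left on spheroids for seven days before reading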
Each entry below carries its reported viability, T/C.
The answer is to be given in %; state only the numeric part.

The examples below pair each entry with its known result.
compound	measured.metric	u	meas.value
C=CC(=O)N1CCN(c2nc(=O)n(-c3c(C)ccnc3C(C)C)c3nc(-c4c(O)cccc4F)c(F)cc23)C(C)C1 (centres undefined) + CCN1C(C(=O)NC23CCC(C(=O)O)(CC2)CC3)C(c2cccc(Cl)c2F)C2(C(=O)Nc3cc(Cl)ccc32)C12CCCCC2	viability, T/C	%	87.7
O=C(c1cc(Cc2n[nH]c(=O)c3ccccc23)ccc1F)N1CCN(C(=O)C2CC2)CC1 + CCN1C(C(=O)NC23CCC(C(=O)O)(CC2)CC3)C(c2cccc(Cl)c2F)C2(C(=O)Nc3cc(Cl)ccc32)C12CCCCC2	viability, T/C	%	80.6
CCN1CCN(Cc2ccc(Nc3ncc(F)c(-c4cc(F)c5nc(C)n(C(C)C)c5c4)n3)nc2)CC1 + CCN1C(C(=O)NC23CCC(C(=O)O)(CC2)CC3)C(c2cccc(Cl)c2F)C2(C(=O)Nc3cc(Cl)ccc32)C12CCCCC2	viability, T/C	%	72.6

Q: Please indicate viability, T/C recorded for COc1c(OCCCN2CCOCC2)ccc2c3n(c(=NC(=O)c4cnc(N)nc4)nc12)CCN3 + CCN1C(C(=O)NC23CCC(C(=O)O)(CC2)CC3)C(c2cccc(Cl)c2F)C2(C(=O)Nc3cc(Cl)ccc32)C12CCCCC2
A: 14.6

Where do the numbers come from? From PubChem BioAssay AID1963442.
